Test system: MKNK1
Conditions: concentration: 1 μM, replicates: in singlicate; n = 1;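 further: KINOMEscan kinase panel screen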
Record form. Attribute: %Inh. Fill in for each entry.
Numeric answer only, unit % assumed.

The reported value for O=C(Nc1n[nH]c2cc(-c3cccc(F)c3)ccc12)C1CC1 [SB-735464] in terms of %Inh is 0

Short answer for CCc1nc(-c2cccc(C)c2)c(-c2ccnc(NCc3ccccc3)c2)s1 : %Inh was 1

%Inh measured on Nc1nc(-c2ccc3c(N)n[nH]c3c2)cc(N2CCCC2)n1 [GSK2227430] = 4

Lookup result for COc1ccc(Nc2ncc(C#N)c(Nc3ccccc3C(N)=O)n2)cc1N1CCN(C)CC1.Cl [GSK1558669] ; measured %Inh: 30

Quick note, %Inh for Cc1nnc(-c2ccc(C)c(-c3ccc(C(=O)Nc4ccc(NS(C)(=O)=O)cc4)cc3)c2)o1 [GW702865] landed at 0

Lab book: %Inh of O=c1cc(N2CCOCC2)nc2n(Cc3cccc(Cl)c3Cl)c(C3CC3)nn12 [GSK2358994] noted as 0

GET /value?item= CC(=O)Nc1ccc(COc2ccc(Nc3ccnc4cc(-c5ccccn5)ccc34)cc2)cc1.Cl [GW440148] &field=%Inh returns 0

// %Inh lookup, compound = O=C(NCCCN1CCOCC1)c1cccc(Nc2nccc(Nc3ccc(Oc4ccccc4)cc3)n2)c1 [GW663929] , result: 0

----------
Tested on: SRPK2
Details: concentration: 1 μM, replicates: in singlicate; n = 1
Task for the reader: assign each of the following compounds its reported %Inh.
Report the value in % with no unit label.

Sample Cn1ccc2ncnc(Oc3ccc(NC(=O)Nc4ccncc4)c(Cl)c3)c21 ; %Inh observed: 0

response.value for CN(C1=C(c2ccccc2)C(=O)NC1=O)c1ccccc1 (field: %Inh) = 0

get_value(item= COc1ccc(CNC(=O)NC2CCN(c3ccnc(Nc4ccc(OC)cc4)n3)C2)cc1 (stereo not shown) , readout=%Inh) returns 35

Given item O=C1NC(=O)C(N2CCc3ccccc32)=C1c1cccc(Cl)c1 , the value recorded as its %Inh is 9

Briefly, %Inh measured for CN1c2ccc(NCc3ccc(F)cc3)cc2-c2c(cnn2C)S1(=O)=O : 0

Note to self: %Inh recorded for CC(=O)Nc1ccc(COc2ccc(Nc3ccnc4cc(-c5ccccn5)ccc34)cc2)cc1.Cl was 12

Note to self: %Inh recorded for O=C(NCCNc1ccnc(Nc2ccc(F)cc2)n1)Nc1ccccc1F was 0

----------
Test system: CDK2
Details: concentration: 1 μM, replicates: in singlicate; n = 1
Would you kindly list %Inh for each of these compounds?
Unit % implied. Number only.

Documented %Inh of c1ccc(-c2n[nH]cc2-c2ccnc3ccccc23)nc1 [GW271431] : 0

The reported %Inh of the compound Fc1ccc(-c2nn3c(OCC(F)(F)F)cccc3c2-c2ccncc2)cc1 [GW514784] was 0

Reported %Inh ( Cc1cn2c(=O)cc(N3CCOCC3)nc2n1Cc1cccc(Cl)c1Cl [GSK2334006] ) = 17

Value of %Inh reported for the compound CC(=O)Nc1ccc(COc2ccc(Nc3ccnc4cc(-c5ccccn5)ccc34)cc2)cc1.Cl [GW440148] is 1

Query NS(=O)(=O)CCc1cccc(Nc2nccc(-c3c(-c4cccc(NC(=O)c5c(F)cccc5F)c4)nn4ccccc34)n2)c1 [GSK336735] yields %Inh of 0
